Target: Carboxypeptidase B (Sus scrofa)
Sequence (P09955 whole entry): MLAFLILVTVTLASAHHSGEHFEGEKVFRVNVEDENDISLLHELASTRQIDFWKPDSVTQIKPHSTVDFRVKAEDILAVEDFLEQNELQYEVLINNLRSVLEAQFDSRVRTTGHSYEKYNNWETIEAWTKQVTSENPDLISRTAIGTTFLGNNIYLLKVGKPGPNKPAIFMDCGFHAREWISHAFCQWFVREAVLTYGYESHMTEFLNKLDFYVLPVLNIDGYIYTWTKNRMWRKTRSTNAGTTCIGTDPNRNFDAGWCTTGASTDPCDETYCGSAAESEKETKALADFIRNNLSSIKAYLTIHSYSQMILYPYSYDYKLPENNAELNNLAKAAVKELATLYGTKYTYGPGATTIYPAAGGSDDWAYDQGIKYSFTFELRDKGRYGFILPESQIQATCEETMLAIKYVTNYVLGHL
Experiment: Inhibition of porcine pancreas carboxypeptidase B after 10 mins in presence of DTT
VALUE TYPE: IC50 (nM)

> print(dat)
                                   molecule  value.type  readout.value
1  CCC(=O)[Se]CC(Cc1cnc(N)c(Cl)c1)C(=O)O (racemic)        IC50             29

###

Biological target: Carboxypeptidase B2 (Homo sapiens)
Sequence (Q96IY4 whole entry): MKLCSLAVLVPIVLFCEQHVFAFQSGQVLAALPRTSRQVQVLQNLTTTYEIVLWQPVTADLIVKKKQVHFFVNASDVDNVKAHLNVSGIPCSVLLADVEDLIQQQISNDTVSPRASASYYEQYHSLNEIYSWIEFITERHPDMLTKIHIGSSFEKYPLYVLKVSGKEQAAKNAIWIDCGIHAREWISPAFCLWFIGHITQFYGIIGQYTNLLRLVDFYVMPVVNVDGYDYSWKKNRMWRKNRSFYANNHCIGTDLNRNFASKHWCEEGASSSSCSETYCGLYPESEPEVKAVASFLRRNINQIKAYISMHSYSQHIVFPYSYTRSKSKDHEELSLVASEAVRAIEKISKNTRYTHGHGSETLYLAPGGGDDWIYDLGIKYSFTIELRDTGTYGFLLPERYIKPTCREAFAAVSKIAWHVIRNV
Test: Inhibition of human plasma activated thrombin-activatable fibrinolysis inhibitor after 10 mins in presence of DTT
pIC50: −log10 of the molar value.
VALUE TYPE: pIC50

> print(dat)
                                   molecule  value.type  readout.value
1  CCC(=O)[Se]CC(Cc1cnc(N)c(Cl)c1)C(=O)O (racemic)       pIC50           8.82

###

Target: Carboxypeptidase N catalytic chain (Homo sapiens, UniProt P15169)
Sequence (P15169 whole entry): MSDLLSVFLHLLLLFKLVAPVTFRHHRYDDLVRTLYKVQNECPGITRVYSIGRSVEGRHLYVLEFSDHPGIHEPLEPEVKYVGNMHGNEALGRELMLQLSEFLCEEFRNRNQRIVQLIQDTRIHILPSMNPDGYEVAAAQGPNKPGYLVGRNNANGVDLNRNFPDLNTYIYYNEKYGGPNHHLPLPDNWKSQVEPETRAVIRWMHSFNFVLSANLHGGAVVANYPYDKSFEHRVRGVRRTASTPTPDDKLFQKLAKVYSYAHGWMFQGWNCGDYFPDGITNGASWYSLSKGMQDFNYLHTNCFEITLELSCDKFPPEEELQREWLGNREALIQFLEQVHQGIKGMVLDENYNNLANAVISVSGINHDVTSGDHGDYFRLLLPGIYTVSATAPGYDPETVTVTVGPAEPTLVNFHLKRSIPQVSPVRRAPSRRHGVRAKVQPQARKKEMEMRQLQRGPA
Assay: Inhibition of human carboxypeptidase N preincubated for 10 mins followed by hippuryl-lysine substrate addition measured after 30 mins in absence of DTT
VALUE TYPE: IC50

> print(dat)
                                   molecule                               test.system  value.type  readout.value
1  CCC(=O)[Se]CC(Cc1cnc(N)c(Cl)c1)C(=O)O (racemic)  Carboxypeptidase N catalytic chain (Homo sapiens, UniProt P15169)        IC50       > 380 µM

###

Biological target: Carboxypeptidase N catalytic chain (Homo sapiens)
Test: Inhibition of human carboxypeptidase N preincubated for 10 mins followed by hippuryl-lysine substrate addition measured after 30 mins in presence of DTT
VALUE TYPE: IC50

> print(dat)
                                   compound                               test.system  value.type  readout.value
1  CCC(=O)[Se]CC(Cc1cnc(N)c(Cl)c1)C(=O)O (racemic)  Carboxypeptidase N catalytic chain (Homo sapiens)        IC50       > 380 µM
